Attribution: patent US11666558B2

# assay_comment: Ocular tissue concentrations (aqueous humor, vitreous humor, iris, retina, choroid, cornea) after topical ocular, subcutaneous and intravitreal administration
# Assay type: in vivo, New Zealand White rabbits
# conditions_used: New Zealand White, rabbit, choroid homogenate, other: intravitreal, 2.5 mg/eye, Choroid homogenate, 24 hr, left eye, intravitreal 2.5 mg/eye (group 5), individual animals; read-out: Conc. (ng/mL) OS
property_label: concentration at 24 hr (ng/mL)
Could you give me the number in ng/mL? Just the number is fine.

Task item: Respond only with concentration at 24 hr recorded for "COC(=O)N[C@@H](Cc1ccccc1)C(=O)N[C@@H](Cc1ccc(NS(=O)(=O)O)cc1)c1csc(-c2cccs2)n1"
Reply: 28400

----------
# assay_comment: Ocular tissue concentrations (aqueous humor, vitreous humor, iris, retina, choroid, cornea) after topical ocular, subcutaneous and intravitreal administration
# Type: in vivo, New Zealand White rabbits
# conditions_used: New Zealand White, rabbit, aqueous humor, other: intravitreal, 2.5 mg per eye, Group 4 intravitreal 2.5 mg per eye; 24 hr; read-out: aqueous humor Conc., individual eyes (OD, OS)
Where a name gives a salt, the structure may show the parent alone.
property_label: concentration at 24 hr (ng/mL)
Output spec: scalar in ng/mL, unitless text.

Task item: Tell us which concentration at 24 hr value is on record for COC(=O)N[C@@H](Cc1ccccc1)C(=O)N[C@@H](Cc1ccc(NS(=O)(=O)O)cc1)c1csc(-c2cccs2)n1 [Compound 1 sodium salt]
Reply: 4700

----------
# assay_comment: Ocular tissue concentrations (aqueous humor, vitreous humor, iris, retina, choroid, cornea) after topical ocular, subcutaneous and intravitreal administration
# Format: in vivo, New Zealand White rabbits
# conditions_used: New Zealand White, rabbit, aqueous humor, topical, 1.2 mg/eye, Group 1 topical ocular 1.2 mg/eye; 2.0 hr; read-out: aqueous humor Average Conc.
Where a name gives a salt, the structure may show the parent alone.
property_label: concentration at 2 h (ng/g)
Note: unit ng/g is implicit; provide only the numeric part.

Task item: Return reported concentration at 2 h. Input compound: COC(=O)N[C@@H](Cc1ccccc1)C(=O)N[C@@H](Cc1ccc(NS(=O)(=O)O)cc1)c1csc(-c2cccs2)n1 [Compound 1 sodium salt]
Reply: 31.6

----------
# assay_comment: Ocular tissue concentrations (aqueous humor, vitreous humor, iris, retina, choroid, cornea) after topical ocular, subcutaneous and intravitreal administration
# Format: in vivo, New Zealand White rabbits
# conditions_used: New Zealand White, rabbit, retina homogenate, subcutaneous, 5 mg/kg/dose, Retina homogenate, 0.5 hr, OD; sodium salt, subcutaneous 5 mg/kg/dose, Group 2; read-out: Retina Conc. (ng/mL) OD
property_label: concentration at 0.5 hr (ng/mL)
Expressed in ng/mL, but write only the number.

Task item: Supply measured concentration at 0.5 hr of "COC(=O)N[C@@H](Cc1ccccc1)C(=O)N[C@@H](Cc1ccc(NS(=O)(=O)O)cc1)c1csc(-c2cccs2)n1" in your reply.
Reply: 2.77

----------
# assay_comment: Ocular tissue concentrations (aqueous humor, vitreous humor, iris, retina, choroid, cornea) after topical ocular, subcutaneous and intravitreal administration
# Type: in vivo, New Zealand White rabbits
# conditions_used: New Zealand White, rabbit, retina, topical, 1.2 mg/eye, topical ocular 1.2 mg/eye (~0.7 mg/kg/dose); 0.5 hr; read-out: Retina tissue Average
Where a name gives a salt, the structure may show the parent alone.
property_label: concentration at 0.5 h

Task item: Check the records and state concentration at 0.5 h for COC(=O)N[C@@H](Cc1ccccc1)C(=O)N[C@@H](Cc1ccc(NS(=O)(=O)O)cc1)c1csc(-c2cccs2)n1 [Compound 1 sodium salt]
Reply: 25.6 ng/g

----------
# assay_comment: Ocular tissue concentrations (aqueous humor, vitreous humor, iris, retina, choroid, cornea) after topical ocular, subcutaneous and intravitreal administration
# Assay type: in vivo, New Zealand White rabbits
# conditions_used: New Zealand White, rabbit, retina, subcutaneous, 5 mg/kg/dose, TABLE 16: Retina, 1 hr, OS; free acid, subcutaneous 5 mg/kg/dose, Group 3; read-out: Retina Conc. (ng/g) OS
# Experimental: To measure the concentration of Compound 1 in plasma and ocular tissues following topical ocular, subcutaneous, and intravitreal administration, New Zealand White rabbits were administered Compound 1, and plasma and ocular samples were collected at pre-determined time points. […] Ocular tissue samples from both eyes of each animal were collected and weights were recorded. Plasma and ocular tissue sample concentrations of Compound 1 were determined by LC-MS/MS. […]
property_label: concentration at 1 h (ng/g)
Please give a number only; it is taken to be in ng/g.

Task item: Tell me measured concentration at 1 h for "COC(=O)N[C@@H](Cc1ccccc1)C(=O)N[C@@H](Cc1ccc(NS(=O)(=O)O)cc1)c1csc(-c2cccs2)n1" please.
Reply: 6.93

----------
# assay_comment: Plasma concentrations and pharmacokinetic parameters after topical ocular, subcutaneous and intravitreal administration
# Assay type: in vivo, New Zealand White rabbits
# conditions_used: New Zealand White, rabbit, plasma, other: intravitreal, 2.5 mg, plasma; intravitreal 2.5 mg/eye (~1.54 mg/kg), suspension; read-out: AUClast (± SE)
property_label: AUC(0-t) (ng·h/mL)
Provide only the numeric value, understood in ng·h/mL.

Task item: State its AUC(0-t) for this compound: COC(=O)N[C@@H](Cc1ccccc1)C(=O)N[C@@H](Cc1ccc(NS(=O)(=O)O)cc1)c1csc(-c2cccs2)n1 [Compound 1 free acid]
Reply: 707

----------
# assay_comment: Plasma concentrations and pharmacokinetic parameters after topical ocular, subcutaneous and intravitreal administration
# Type: in vivo, New Zealand White rabbits
# conditions_used: New Zealand White, rabbit, plasma, other: intravitreal, 2.5 mg/eye, intravitreal 2.5 mg/eye (~1.54 mg/kg), suspension; 24.0 hr; read-out: plasma Average
property_label: concentration at 24 h (ng/mL)
API: value field is a number in ng/mL; no unit string.

Task item: Please indicate concentration at 24 h recorded for COC(=O)N[C@@H](Cc1ccccc1)C(=O)N[C@@H](Cc1ccc(NS(=O)(=O)O)cc1)c1csc(-c2cccs2)n1 [Compound 1 free acid]
Reply: 12.3

----------
# assay_comment: Plasma concentrations and pharmacokinetic parameters after topical ocular, subcutaneous and intravitreal administration
# Assay type: in vivo, New Zealand White rabbits
# conditions_used: New Zealand White, rabbit, plasma, topical or ocular, 1.2 mg, plasma; topical ocular 1.2 mg/eye (~0.7 mg/kg/dose), solution; read-out: tmax
Where a name gives a salt, the structure may show the parent alone.
property_label: Tmax (h)
Only the number, expressed in h, is required.

Task item: Note Tmax for the compound shown: COC(=O)N[C@@H](Cc1ccccc1)C(=O)N[C@@H](Cc1ccc(NS(=O)(=O)O)cc1)c1csc(-c2cccs2)n1 [Compound 1 sodium salt]
Reply: 4

----------
# assay_comment: Ocular tissue concentrations (aqueous humor, vitreous humor, iris, retina, choroid, cornea) after topical ocular, subcutaneous and intravitreal administration
# Type: in vivo, New Zealand White rabbits
# conditions_used: New Zealand White, rabbit, aqueous humor, other: intravitreal, 2.5 mg per eye, Group 4 intravitreal 2.5 mg per eye; 48 hr; read-out: aqueous humor Conc., individual eyes (OD, OS)
# Experimental: To measure the concentration of Compound 1 in plasma and ocular tissues following topical ocular, subcutaneous, and intravitreal administration, New Zealand White rabbits were administered Compound 1, and plasma and ocular samples were collected at pre-determined time points. […] Ocular tissue samples from both eyes of each animal were collected and weights were recorded. Plasma and ocular tissue sample concentrations of Compound 1 were determined by LC-MS/MS. […]
Where a name gives a salt, the structure may show the parent alone.
property_label: concentration at 48 hr

Task item: Identify measured concentration at 48 hr corresponding to COC(=O)N[C@@H](Cc1ccccc1)C(=O)N[C@@H](Cc1ccc(NS(=O)(=O)O)cc1)c1csc(-c2cccs2)n1 [Compound 1 sodium salt]
Reply: 2040 ng/mL

----------
# assay_comment: Ocular tissue concentrations (aqueous humor, vitreous humor, iris, retina, choroid, cornea) after topical ocular, subcutaneous and intravitreal administration
# Assay type: in vivo, New Zealand White rabbits
# conditions_used: New Zealand White, rabbit, cornea, subcutaneous, 5 mg/kg/dose, Cornea, 0.5 hr, OS; free acid, subcutaneous 5 mg/kg/dose, Group 3; read-out: Cornea Conc. (ng/g) OS
property_label: concentration at 0.5 h (ng/g)
Expressed in ng/g, but write only the number.

Task item: Let me know recorded concentration at 0.5 h for "COC(=O)N[C@@H](Cc1ccccc1)C(=O)N[C@@H](Cc1ccc(NS(=O)(=O)O)cc1)c1csc(-c2cccs2)n1" , thanks.
Reply: 9.87

----------
# assay_comment: Plasma concentrations and pharmacokinetic parameters after topical ocular, subcutaneous and intravitreal administration
# Type: in vivo, New Zealand White rabbits
# conditions_used: New Zealand White, rabbit, plasma, subcutaneous, 5 mg/kg/dose, subcutaneous 5 mg/kg/dose, solution; 1.0 hr; read-out: plasma Conc., individual rabbit
Where a name gives a salt, the structure may show the parent alone.
property_label: concentration at 1 h (ng/mL)
# number only, unit ng/mL dropped from output

Task item: Identify measured concentration at 1 h associated with COC(=O)N[C@@H](Cc1ccccc1)C(=O)N[C@@H](Cc1ccc(NS(=O)(=O)O)cc1)c1csc(-c2cccs2)n1 [Compound 1 sodium salt]
Reply: 664
